Provenance of the data: patent US20050288307A1

- Test system: HIV-1RoJo/PBMC
- Test Protocol: Anti-HIV efficacy in fresh human PBMCs, strain RoJo
- Assay type: cell-based
- Assay Setup: HIV-1RoJo/PBMC
Entries whose TI (therapeutic index: TC50/IC50) is below 80 take t; entries at or above 80 take f.

These recorded examples may help you get a feel for the data.
>  <Query Smiles>
CNc1nc(C)c(-c2ccnc(Nc3cccc(O)c3)n2)s1

>  <Group Label>
t

$$$$
>  <Query Smiles>
COc1ccc(Nc2nccc(-c3sc(C)nc3C)n2)cc1OC

>  <Group Label>
t

$$$$
>  <Query Smiles>
CNc1nc(C)c(-c2ccnc(Nc3ccc(F)cc3)n2)s1

>  <Group Label>
t

$$$$

Data request: Could you please tell me whether TI (therapeutic index: TC50/IC50) recorded for Cc1nc(C)c(-c2ccnc(Nc3ccc(I)cc3)n2)s1 is less than 80?
Data returned: f

====

Each entry below lists one item and its recorded CC50 at 7 days value.
- Test Protocol: Compound cytotoxicity in PBMC assay plates (MTS cell viability)
- Assay Setup: human, TC50 (concentration decreasing cell viability by 50%), HIV-1RoJo/PBMC
Please state the figure in nM; there is no need to write the unit.

Examples with answers:
>  <Query Smiles>
Cc1nc(N)sc1-c1ccnc(Nc2cccc([N+](=O)[O-])c2)n1

>  <Observed Value>
1600

$$$$
>  <Query Smiles>
CNc1nc(C)c(-c2ccnc(Nc3ccc(F)cc3)n2)s1

>  <Observed Value>
6800

$$$$

Now for the compound whose CC50 at 7 days we want.
Data request: Requested field: CC50 at 7 days. Item: CNc1nc(C)c(-c2ccnc(Nc3cccc(O)c3)n2)s1
Data returned: 2700

====

- Experimental Target: CDK4/Cyclin D1 (Homo sapiens)
- Sequence (P11802 whole entry, species assumed): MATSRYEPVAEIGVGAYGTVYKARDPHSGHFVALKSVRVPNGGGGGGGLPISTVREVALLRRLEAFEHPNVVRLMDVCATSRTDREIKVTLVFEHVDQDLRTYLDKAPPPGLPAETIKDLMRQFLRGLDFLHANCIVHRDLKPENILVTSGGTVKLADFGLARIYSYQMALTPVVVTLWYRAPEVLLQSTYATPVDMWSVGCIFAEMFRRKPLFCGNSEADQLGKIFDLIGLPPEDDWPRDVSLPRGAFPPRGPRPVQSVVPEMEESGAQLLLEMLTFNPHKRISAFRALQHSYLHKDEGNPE
- Sequence (P24385 whole entry partner, species assumed): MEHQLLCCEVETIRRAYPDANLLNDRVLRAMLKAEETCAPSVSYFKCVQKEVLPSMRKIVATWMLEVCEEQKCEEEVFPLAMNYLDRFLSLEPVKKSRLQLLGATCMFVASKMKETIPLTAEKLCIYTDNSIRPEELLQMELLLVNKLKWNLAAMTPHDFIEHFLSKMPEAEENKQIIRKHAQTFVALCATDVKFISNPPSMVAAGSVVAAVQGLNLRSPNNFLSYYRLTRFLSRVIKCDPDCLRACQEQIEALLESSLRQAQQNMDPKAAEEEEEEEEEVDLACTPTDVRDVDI
- Test Protocol: CDK4/cyclin D1 kinase assay (GST-Rb phosphorylation)
- Format: biochemical
- Assay Setup: Table 4; read-out: Kinase Inhibition IC50 CDK4-cyclin D1
Entries whose IC50 is below 1000 nM take yes; entries at or above 1000 nM take no.

These recorded examples may help you get a feel for the data.
>  <Compound>
Cc1ccc(Nc2nccc(-c3sc(=O)n(C)c3C)n2)cc1[N+](=O)[O-] [Compound 163]

>  <Experimental Target>
CDK4/Cyclin D1 (Homo sapiens)

>  <Group Label>
yes

$$$$
>  <Compound>
Cc1cc(Nc2nccc(-c3sc(=O)n(C)c3C)n2)ccc1Cl [Compound 160]

>  <Experimental Target>
CDK4/Cyclin D1 (Homo sapiens)

>  <Group Label>
no

$$$$
>  <Compound>
Cc1ccc(Nc2nccc(-c3sc(=O)n(C)c3C)n2)cc1I [Compound 161]

>  <Experimental Target>
CDK4/Cyclin D1 (Homo sapiens)

>  <Group Label>
no

$$$$

Data request: Could you please tell me whether IC50 recorded for Cc1c(-c2ccnc(Nc3cccc([N+](=O)[O-])c3)n2)sc(=O)n1C [Compound 153] is less than 1000 nM?
Data returned: yes

====

- Experimental Target: CDK2/cyclin A (Homo sapiens)
- Test Protocol: CDK2/cyclin A kinase assay;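 further: Read-out is incorporated radioactivity retained on P81 filter plates and quantified by scintillation counting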
- Type: biochemical
- Assay Setup: Table 4; read-out: Kinase Inhibition IC50 CDK2-cyclin A
Entries whose IC50 is below 300 nM take Met; entries at or above 300 nM take Not met.

>  <Query Smiles>
Cc1c(-c2ccnc(Nc3cccc(O)c3)n2)sc(=O)n1C

>  <Experimental Target>
CDK2/cyclin A (Homo sapiens)

>  <Group Label>
Met

$$$$
>  <Query Smiles>
Cc1cc(Nc2nccc(-c3sc(=O)n(C)c3C)n2)ccc1Cl

>  <Experimental Target>
CDK2/cyclin A (Homo sapiens)

>  <Group Label>
Not met

$$$$

Data request: Could you please tell me whether IC50 recorded for Cc1ccc(Nc2nccc(-c3sc(=O)n(C)c3C)n2)cc1I is less than 300 nM?
Data returned: Not met

Data request: Follow-up entry: Cc1c(-c2ccnc(Nc3ccc(Cl)cc3)n2)sc(=O)n1C
Data returned: Met

Data request: Follow-up entry: Cc1c(-c2ccnc(Nc3ccc(F)c([N+](=O)[O-])c3)n2)sc(=O)n1C
Data returned: Met

Data request: Follow-up entry: Cc1c(-c2ccnc(Nc3cccc([N+](=O)[O-])c3)n2)sc(=O)n1C
Data returned: Met

Data request: Follow-up entry: Cc1ccc(Nc2nccc(-c3sc(=O)n(C)c3C)n2)cc1[N+](=O)[O-]
Data returned: Met

====

- Experimental Target: CDK1/Cyclin B (Homo sapiens, UniProt P06493)
- Sequence (P06493 whole entry, species assumed): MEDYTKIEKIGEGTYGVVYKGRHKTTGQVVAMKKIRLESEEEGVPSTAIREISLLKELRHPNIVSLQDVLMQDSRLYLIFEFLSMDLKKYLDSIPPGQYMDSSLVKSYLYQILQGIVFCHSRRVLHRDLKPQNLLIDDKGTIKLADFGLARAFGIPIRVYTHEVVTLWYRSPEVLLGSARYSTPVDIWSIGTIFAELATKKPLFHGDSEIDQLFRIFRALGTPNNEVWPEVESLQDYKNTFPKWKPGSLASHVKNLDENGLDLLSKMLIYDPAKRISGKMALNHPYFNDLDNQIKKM
- Sequence (P14635 whole entry partner, species assumed): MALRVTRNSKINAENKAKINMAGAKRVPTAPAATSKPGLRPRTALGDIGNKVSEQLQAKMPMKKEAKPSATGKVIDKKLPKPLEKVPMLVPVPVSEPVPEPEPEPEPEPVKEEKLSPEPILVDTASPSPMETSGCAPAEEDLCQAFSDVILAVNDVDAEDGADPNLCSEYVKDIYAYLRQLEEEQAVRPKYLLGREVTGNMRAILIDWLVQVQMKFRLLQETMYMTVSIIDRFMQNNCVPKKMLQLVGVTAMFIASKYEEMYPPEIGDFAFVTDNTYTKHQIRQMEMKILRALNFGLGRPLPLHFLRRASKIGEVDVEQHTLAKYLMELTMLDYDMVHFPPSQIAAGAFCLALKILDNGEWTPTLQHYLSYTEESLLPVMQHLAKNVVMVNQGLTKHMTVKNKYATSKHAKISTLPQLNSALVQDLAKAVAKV
- Test Protocol: CDK1/cyclin B kinase assay (GST-Rb phosphorylation);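 further: Enzyme: His-tagged CDK1/Cyclin B co-expressed in baculovirus-infected Sf9 insect cells, purified via metal-chelate chromatography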
Parameter Measured: IC50

Examples with answers:
>  <Query Smiles>
Cc1nc(C)c(-c2ccnc(Nc3ccc(Cl)cc3)n2)s1

>  <IC50>
14 µM

$$$$
>  <Query Smiles>
Cc1nc(C)c(-c2ccnc(Nc3ccc(O)c([N+](=O)[O-])c3)n2)s1

>  <IC50>
14 µM

$$$$

Data request: Recorded IC50 for Cc1nc(N)sc1-c1ccnc(Nc2ccc(CCO)cc2)n1 with CDK1/Cyclin B (Homo sapiens, UniProt P06493), please?
Data returned: 1.8 µM

====

The following are reported IC50 results, target or system SAPK2a (Homo sapiens, UniProt Q16539).
Please state the figure in µM; there is no need to write the unit.

>  <Query Smiles>
COc1ccc(Nc2nccc(-c3sc(C)nc3C)n2)cc1

>  <IC50, µM>
45

$$$$
>  <Query Smiles>
Cc1nc(C)c(-c2ccnc(Nc3ccc(F)cc3F)n2)s1

>  <IC50, µM>
40

$$$$

Data request: Recorded IC50 for Cc1nc(C)c(-c2ccnc(Nc3cccc([N+](=O)[O-])c3)n2)s1 with SAPK2a (Homo sapiens, UniProt Q16539), please?
Data returned: 40

====

Each entry below lists one item and its recorded IC50 value.
- Experimental Target: CDK7/cyclin H (Homo sapiens)
- Sequence (P50613 whole entry): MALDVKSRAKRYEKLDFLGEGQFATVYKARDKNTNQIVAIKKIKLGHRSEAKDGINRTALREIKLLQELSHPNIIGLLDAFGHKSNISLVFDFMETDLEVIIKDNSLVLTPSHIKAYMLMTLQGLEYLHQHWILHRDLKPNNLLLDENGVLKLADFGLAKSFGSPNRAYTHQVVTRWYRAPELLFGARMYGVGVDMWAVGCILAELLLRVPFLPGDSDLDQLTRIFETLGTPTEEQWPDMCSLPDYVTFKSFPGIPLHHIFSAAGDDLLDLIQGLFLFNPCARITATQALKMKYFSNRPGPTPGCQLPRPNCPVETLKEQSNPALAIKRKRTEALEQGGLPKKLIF
- Sequence (P51946 whole entry partner): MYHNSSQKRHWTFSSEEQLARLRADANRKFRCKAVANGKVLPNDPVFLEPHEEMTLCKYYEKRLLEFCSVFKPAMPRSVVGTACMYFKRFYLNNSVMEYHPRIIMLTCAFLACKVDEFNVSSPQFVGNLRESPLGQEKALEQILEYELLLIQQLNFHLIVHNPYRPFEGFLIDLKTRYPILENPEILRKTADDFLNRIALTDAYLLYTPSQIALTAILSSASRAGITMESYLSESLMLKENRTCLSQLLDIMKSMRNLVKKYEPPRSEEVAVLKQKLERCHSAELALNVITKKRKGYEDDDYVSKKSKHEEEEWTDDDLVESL
- Test Protocol: CDK7 assay (CTD peptide substrate)
- Assay type: biochemical
- Assay Setup: Table 2; read-out: Average IC50 CDK7 cyclin H
Please state the figure in nM; there is no need to write the unit.

Examples with answers:
>  <Query Smiles>
Cc1nc(N)sc1-c1ccnc(Nc2cccc(O)c2)n1

>  <Measurement Unit>
nM

>  <Observed Value>
990

$$$$
>  <Query Smiles>
Cc1nc(C)c(-c2ccnc(Nc3cccc([N+](=O)[O-])c3)n2)s1

>  <Measurement Unit>
nM

>  <Observed Value>
13000

$$$$

Data request: Requested field: IC50. Item: Cc1nc(N)sc1-c1ccnc(Nc2ccc(I)c([N+](=O)[O-])c2)n1
Data returned: 360

Data request: Follow-up entry: Cc1nc(C)c(-c2ccnc(Nc3cccc(C#N)c3)n2)s1
Data returned: 1700

====

- Experimental Target: CDK2/Cyclin E (Homo sapiens, UniProt P24941)
- Construct: His; made in house; host or cells: Sf9 insect cells (baculovirus)
- Test Protocol: CDK2/cyclin E kinase assay (GST-Rb phosphorylation)
- Format: biochemical
- Assay Setup: Table 4; read-out: Kinase Inhibition IC50 CDK2-cyclin E
Each entry below lists one item and its recorded IC50 value.
Could you kindly put the unit after your number?

>  <Query Smiles>
Cc1c(-c2ccnc(Nc3cccc(O)c3)n2)sc(=O)n1C

>  <IC50>
93 nM

$$$$
>  <Query Smiles>
Cc1ccc(Nc2nccc(-c3sc(=O)n(C)c3C)n2)cc1[N+](=O)[O-]

>  <IC50>
36000 nM

$$$$
>  <Query Smiles>
Cc1c(-c2ccnc(Nc3ccc(F)c([N+](=O)[O-])c3)n2)sc(=O)n1C

>  <IC50>
78 nM

$$$$
>  <Query Smiles>
Cc1cc(Nc2nccc(-c3sc(=O)n(C)c3C)n2)ccc1Cl

>  <IC50>
1700 nM

$$$$
>  <Query Smiles>
Cc1c(-c2ccnc(Nc3cccc([N+](=O)[O-])c3)n2)sc(=O)n1C

>  <IC50>
610 nM

$$$$

Now for the compound whose IC50 we want.
Data request: Requested field: IC50. Item: Cc1ccc(Nc2nccc(-c3sc(=O)n(C)c3C)n2)cc1I
Data returned: 3200 nM

====

- Experimental Target: CDK2/Cyclin E (Homo sapiens)
- Construct: His; made in house; host or cells: Sf9 insect cells (baculovirus)
- Test Protocol: CDK2/cyclin E kinase assay (GST-Rb phosphorylation);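 further: enzyme source: His-tagged CDK2/cyclin E complex co-expressed recombinantly in Sf9 insect cells using baculovirus constructs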
- Type: biochemical
- Assay Setup: Table 3; read-out: Average IC50 CDK2 cyclin E1
Entries get a class label from measured IC50. See ranges: label 0 = under 800 nM, label 1 = from 800 nM up to 6000 nM, label 2 = 6000 nM and over

>  <Query Smiles>
Cc1nc(C)c(-c2ccnc(Nc3cccc(I)c3)n2)s1

>  <Group Label>
label 2

$$$$

Data request: Bin? CNc1nc(C)c(-c2ccnc(Nc3cccc(C(F)(F)F)c3)n2)s1
Data returned: label 0

Data request: Follow-up entry: CCNc1nc(C)c(-c2ccnc(Nc3cccc([N+](=O)[O-])c3)n2)s1
Data returned: label 0

Data request: Follow-up entry: COc1cccc(Nc2nccc(-c3sc(C)nc3C)n2)c1
Data returned: label 0

Data request: Follow-up entry: COc1ccc(Nc2nccc(-c3sc(C)nc3C)n2)c(O)c1
Data returned: label 1

Data request: Follow-up entry: Cc1nc(C)c(-c2ccnc(Nc3ccc(Cl)cc3Cl)n2)s1
Data returned: label 2

Data request: Follow-up entry: CCNc1nc(C)c(-c2ccnc(Nc3cccc(OC)c3)n2)s1
Data returned: label 2

Data request: Follow-up entry: CNc1nc(C)c(-c2ccnc(Nc3ccc(OC)cc3)n2)s1
Data returned: label 0

Data request: Follow-up entry: CCNc1nc(C)c(-c2ccnc(Nc3ccc(C)c([N+](=O)[O-])c3)n2)s1
Data returned: label 1

Data request: Follow-up entry: Cc1nc(C)c(-c2ccnc(Nc3cccc(Cl)c3)n2)s1
Data returned: label 1

Data request: Follow-up entry: Cc1nc(C)c(-c2ccnc(Nc3cc(Cl)cc(Cl)c3)n2)s1
Data returned: label 2

Data request: Follow-up entry: CCNc1nc(C)c(-c2ccnc(Nc3ccc(Cl)cc3)n2)s1
Data returned: label 1

Data request: Follow-up entry: Cc1nc(C)c(-c2ccnc(Nc3cccc(N)c3)n2)s1
Data returned: label 0
